target_entity: DNA dC->dU-editing enzyme APOBEC-3F (Homo sapiens) (UniProt Q8IUX4)
Sequence (Q8IUX4 whole entry, looked up): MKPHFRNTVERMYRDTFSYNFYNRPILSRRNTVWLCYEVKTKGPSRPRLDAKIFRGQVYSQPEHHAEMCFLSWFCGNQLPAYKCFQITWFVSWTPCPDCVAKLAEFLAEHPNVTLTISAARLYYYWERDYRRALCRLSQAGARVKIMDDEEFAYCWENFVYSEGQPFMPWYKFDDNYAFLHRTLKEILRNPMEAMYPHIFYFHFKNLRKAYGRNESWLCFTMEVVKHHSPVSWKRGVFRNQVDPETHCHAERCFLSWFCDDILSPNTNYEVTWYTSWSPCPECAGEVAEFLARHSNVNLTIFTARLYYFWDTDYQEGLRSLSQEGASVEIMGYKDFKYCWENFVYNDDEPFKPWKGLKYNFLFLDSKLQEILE
protocol_notes: qHTS for inhibitors of Vif-A3F interactions: Cherry picks;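 further: % of control where 0% means no effect; active compounds raise eYFP fluorescence by blocking Vif-driven A3F loss; nearly all actives have a fitted effect of over 70% in size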
experimental_conditions: HeLa A3F-eYFP + Vif (tagged APOBEC3F with the HIV-1 protein that degrades it), eYFP fluorescence, 24 h
In all, about 2,100 compounds went through this assay and about 590 (28%) were called active. About 42% were inconclusive and are not listed. Some of the results follow.
attribute_measured: max response (%)

[[record]]
molecule = "CCC(C)N1C(=O)/C(=C\\c2ccc(N3CCCCCC3)cc2)C(=O)NC1=S (stereo not given)"
unit_spec = "%"
recorded_measurement = -14.3

[[record]]
molecule = "O=c1nc(/C=C/c2ccc(Cl)cc2Cl)cc(C(F)(F)F)[nH]1"
unit_spec = "%"
recorded_measurement = -25.1

[[record]]
molecule = "O=C1NC(=O)N(Cc2ccc(F)cc2)C(=O)/C1=C\\c1ccoc1"
unit_spec = "%"
recorded_measurement = -24.2

[[record]]
molecule = "COc1ccccc1-n1c(/C=C/c2ccc(O)cc2)nc2ccccc2c1=O"
unit_spec = "%"
recorded_measurement = -0.327

[[record]]
molecule = "O=C1NC(=O)N(Cc2ccc(F)cc2)C(=O)/C1=C\\C=C\\c1ccco1"
unit_spec = "%"
recorded_measurement = -29.5

[[record]]
molecule = "CN1/C(=C\\C=C2C(=O)NC(=O)NC2=O)C(C)(C)c2ccccc21"
unit_spec = "%"
recorded_measurement = -9.38

[[record]]
molecule = "Cc1ccc(N2C(=O)NC(=O)/C(=C\\C=C\\c3ccco3)C2=O)cc1C"
unit_spec = "%"
recorded_measurement = -16.6

[[record]]
molecule = "Cc1cccc(CN2CCCC(C(=O)c3cccc(OC(C)C)c3)C2)n1 (stereo not given)"
unit_spec = "%"
recorded_measurement = 3.61

[[record]]
molecule = "Cc1ccc(/C=C2/C(=O)NC(=O)N(CCc3ccc(F)cc3)C2=O)s1"
unit_spec = "%"
recorded_measurement = -13.3

[[record]]
molecule = "Cc1cc(/C=C2\\C(=O)NC(=O)N(c3ccc(Br)cc3)C2=O)c(C)n1C"
unit_spec = "%"
recorded_measurement = -6.73

